B1: 2M8U (parent)
chain: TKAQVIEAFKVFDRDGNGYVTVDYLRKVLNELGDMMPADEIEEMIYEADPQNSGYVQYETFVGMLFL

# Variants of: B1
# experiment.description: folding stability dG (cDNA display proteolysis); higher = more stable
# assay.setup: PBS, room temperature
Please respond with reported folding stability dG for every item in the list.
Provide the reading as a plain figure in kcal/mol.

Input line: Tell me the measured folding stability dG of N17Q , please.
Output line: 3.12

Input line: What about this variant? Q57L
Output line: 3.08

Input line: Try R26L next.
Output line: 3.38

Input line: Now the variant K27C
Output line: 3.05

Input line: # iterate: Y58K
Output line: 1.56

Input line: Do the same for Y19E please
Output line: 2.63

Input line: // query: M44Y
Output line: 3.21

Input line: Quick one: V5I
Output line: 3.81

Input line: How about T1D ?
Output line: 2.96

Input line: What do you have for R26M ?
Output line: 3.44

Input line: # repeat for P50T
Output line: 3.12

Input line: Another: L29H
Output line: 1.67

Input line: Then this variant: T1A
Output line: 3.13

Input line: Another: R14A
Output line: 3.65

Input line: Same again, this time with A3Q
Output line: 3.56

Input line: For D39F then?
Output line: 4.09

Input line: Would you mind doing S53R as well?
Output line: 3.35

Input line: Thanks! And M64G ?
Output line: 3.04

Input line: Now consider G33L and answer again.
Output line: 3.89

Input line: Same lookup for M44G , please.
Output line: 2.53

Input line: And K10V ?
Output line: 3.17

Input line: Next variant up: Q4H
Output line: 3.12

Input line: Q57C , same question.
Output line: 3.25

Input line: Subsequent entry: E7C
Output line: 3.41

Input line: How about this variant: Y55P
Output line: 1.77

Input line: Same lookup for K27Y , please.
Output line: 3.43

Input line: Param item: L65D
Output line: 1.97

Input line: Also, N52I please.
Output line: 3.03

Input line: And the next one, V20S ?
Output line: 2.45

Input line: And what about the variant I45P ?
Output line: 1.88

Input line: Query Y24I next
Output line: 4.54

Input line: Do the same for E7W please
Output line: 2.42

Input line: One more variant: E42H
Output line: 3.01

Input line: What do we get for Y19G ?
Output line: 1.95

Input line: One more variant: Y55L
Output line: 3.35

Input line: Now the same for T21H
Output line: 4.14

Input line: Subsequent entry: E43K
Output line: 3.75

Input line: Do the same for P50Y please
Output line: 3.06

Input line: Another variant: E7Y
Output line: 2.7

Input line: Now give it for Y24F too.
Output line: 3.51

Input line: L65P , same question.
Output line: 1.55

Input line: Follow-up entry: A38N
Output line: 3.45

Input line: Same read-out for F61S ?
Output line: 1.33

Input line: Then E47N ?
Output line: 3.52

Input line: Ok, now P50M
Output line: 3.05

Input line: What do we get for F66V ?
Output line: 2.84
